Listed compounds paired with reported AC50
- Tested on: MOLP-8 human multiple myeloma cell line
- assay: Caspase-Glo 3/7 assay in MOLP-8 cells
- Assay type: cell-based
- conditions_used: Caspase-Glo 3/7, 2 hours incubation; averaged over all runs on all batches; read-out: MOLP8 AC50

# compound, AC50
rows = [
    ("COCC1(CO)/C(F)=C/C[C@H](C)[C@@H](C)S(=O)(=O)NC(=O)c2ccc3c(c2)N(C[C@@H]2CCN21)C[C@@]1(CCCc2cc(Cl)ccc21)CO3 (single isomer, unassigned) [Compound 39]", "630 nM"),
    ("COCCOCC1(CO)/C(F)=C/C[C@H](C)[C@@H](C)S(=O)(=O)NC(=O)c2ccc3c(c2)N(C[C@@H]2CCN21)C[C@@]1(CCCc2cc(Cl)ccc21)CO3 (single isomer, unassigned) [Compound 42]", "730 nM"),
    ("COCCOCC1(CO)/C(F)=C/C[C@H](C)[C@@H](C)S(=O)(=O)NC(=O)c2ccc3c(c2)N(C[C@@H]2CCN21)C[C@@]1(CCCc2cc(Cl)ccc21)CO3 (single isomer, unassigned) [Compound 40]", "194 nM"),
    ("COCC1(CO)/C(F)=C/C[C@H](C)[C@@H](C)S(=O)(=O)NC(=O)c2ccc3c(c2)N(C[C@@H]2CCN21)C[C@@]1(CCCc2cc(Cl)ccc21)CO3 (single isomer, unassigned) [Compound 38]", "152 nM"),
    ("C[C@@H]1[C@@H](C)C/C=C(\\F)[C@H](COc2ccccn2)N2CC[C@@H]2CN2C[C@@]3(CCCc4cc(Cl)ccc43)COc3ccc(cc32)C(=O)NS1(=O)=O", "520 nM"),
]

---

- test_target: Myeloid Cell Leukemia 1(Mcl-1) (Homo sapiens (Human), UniProt Q07820)
- Sequence (Q07820 whole entry): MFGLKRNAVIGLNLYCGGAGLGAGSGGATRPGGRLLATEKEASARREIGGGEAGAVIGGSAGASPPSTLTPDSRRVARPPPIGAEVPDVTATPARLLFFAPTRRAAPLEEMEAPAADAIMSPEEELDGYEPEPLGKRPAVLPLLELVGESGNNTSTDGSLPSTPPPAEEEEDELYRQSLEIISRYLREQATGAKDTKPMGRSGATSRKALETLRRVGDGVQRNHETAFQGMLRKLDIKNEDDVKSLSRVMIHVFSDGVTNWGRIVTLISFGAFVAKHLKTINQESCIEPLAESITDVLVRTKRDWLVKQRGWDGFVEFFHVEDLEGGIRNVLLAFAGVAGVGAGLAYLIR
- assay: Terbium labeled Mcl-1 HTRF binding assay with Cy5-labeled BIM BH3 peptide
- conditions_used: obtained after recalibration of the equipment; averaged values over several runs
Listed compounds paired with reported Ki

# compound, test_target, Ki
rows = [
    ("COCCOCC1(CO)/C(F)=C/C[C@H](C)[C@@H](C)S(=O)(=O)NC(=O)c2ccc3c(c2)N(C[C@@H]2CCN21)C[C@@]1(CCCc2cc(Cl)ccc21)CO3 (single isomer, unassigned) [Compound 40]", "Myeloid Cell Leukemia 1(Mcl-1) (Homo sapiens (Human), UniProt Q07820)", "0.16 nM"),
    ("COCC1(CO)/C(F)=C/C[C@H](C)[C@@H](C)S(=O)(=O)NC(=O)c2ccc3c(c2)N(C[C@@H]2CCN21)C[C@@]1(CCCc2cc(Cl)ccc21)CO3 (single isomer, unassigned) [Compound 39]", "Myeloid Cell Leukemia 1(Mcl-1) (Homo sapiens (Human), UniProt Q07820)", "1.84 nM"),
    ("COCCCOC[C@H]1/C(F)=C/C[C@H](C)[C@@H](C)S(=O)(=O)NC(=O)c2ccc3c(c2)N(C[C@@H]2CCN21)C[C@@]1(CCCc2cc(Cl)ccc21)CO3 [Compound 22]", "Myeloid Cell Leukemia 1(Mcl-1) (Homo sapiens (Human), UniProt Q07820)", "0.69 nM"),
]

---

- test_target: Myeloid Cell Leukemia 1(Mcl-1) (Homo sapiens (Human), UniProt Q07820)
- assay: Terbium labeled Mcl-1 HTRF binding assay with Cy5-labeled BIM BH3 peptide
- conditions_used: first table; [L]=8 nM, Kd=10 nM; before recalibration of the equipment
measured_property: Ki (nM)

# compound, numeric_value
measured = [
    ("COCC1/C=C/C[C@H](C)[C@@H](C)S(=O)(=O)NC(=O)c2ccc3c(c2)N(C[C@@H]2CCCN12)C[C@@]1(CCCc2cc(Cl)ccc21)CO3 (single isomer, unassigned)", 2.04),
    ("COC[C@H]1/C(F)=C/C[C@H](C)[C@@H](C)S(=O)(=O)NC(=O)c2ccc3c(c2)N(C[C@@H]2CCCN21)C[C@@]1(CCCc2cc(Cl)ccc21)CO3", 0.91),
    ("COC[C@H]1/C(F)=C/C[C@H](C)[C@@H](C)S(=O)(=O)NC(=O)c2ccc3c(c2)N(C[C@@H]2CCN21)C[C@@]1(CCCc2cc(Cl)ccc21)CO3", 0.49),
]

---

- test_target: Myeloid Cell Leukemia 1(Mcl-1) (Homo sapiens (Human), UniProt Q07820)
- assay: Terbium labeled Mcl-1 HTRF binding assay with Cy5-labeled BIM BH3 peptide
- conditions_used: obtained after recalibration of the equipment; averaged values over several runs
measured_property: log10 Ki (log10 of the value in nM)

# compound, test_target, log10 Ki
records = [
    ("C[C@@H]1[C@@H](C)C/C=C(\\F)[C@H](COCC(=O)O)N2CC[C@H]2CN2C[C@@]3(CCCc4cc(Cl)ccc43)COc3ccc(cc32)C(=O)NS1(=O)=O [Compound 17]", "Myeloid Cell Leukemia 1(Mcl-1) (Homo sapiens (Human), UniProt Q07820)", -0.77),
    ("C[C@@H]1[C@@H](C)C/C=C(\\F)[C@H](COCC2CCC2)N2CC[C@H]2CN2C[C@@]3(CCCc4cc(Cl)ccc43)COc3ccc(cc32)C(=O)NS1(=O)=O [Compound 26]", "Myeloid Cell Leukemia 1(Mcl-1) (Homo sapiens (Human), UniProt Q07820)", 0.46),
    ("COCCOCC1(CO)/C(F)=C/C[C@H](C)[C@@H](C)S(=O)(=O)NC(=O)c2ccc3c(c2)N(C[C@@H]2CCN21)C[C@@]1(CCCc2cc(Cl)ccc21)CO3 (single isomer, unassigned) [Compound 42]", "Myeloid Cell Leukemia 1(Mcl-1) (Homo sapiens (Human), UniProt Q07820)", -0.05),
    ("C[C@@H]1[C@@H](C)C/C=C(\\F)[C@H](CO)N2CC[C@H]2CN2C[C@@]3(CCCc4cc(Cl)ccc43)COc3ccc(cc32)C(=O)NS1(=O)=O [Compound 9]", "Myeloid Cell Leukemia 1(Mcl-1) (Homo sapiens (Human), UniProt Q07820)", -0.64),
    ("COC[C@@H]1/C=C/C[C@@H](C)[C@@H](C)S(=O)(=O)NC(=O)c2ccc3c(c2)N(C[C@@H]2CCN21)C[C@@]1(CCCc2cc(Cl)ccc21)CO3 [Compound 7]", "Myeloid Cell Leukemia 1(Mcl-1) (Homo sapiens (Human), UniProt Q07820)", -0.21),
    ("COCC1(CO)/C(F)=C/C[C@H](C)[C@@H](C)S(=O)(=O)NC(=O)c2ccc3c(c2)N(C[C@@H]2CCN21)C[C@@]1(CCCc2cc(Cl)ccc21)CO3 (single isomer, unassigned) [Compound 38]", "Myeloid Cell Leukemia 1(Mcl-1) (Homo sapiens (Human), UniProt Q07820)", -0.82),
]
